OBSERVED_PROPERTY: Solubility

CCCOC(=O)c1cc(O)c(O)c(O)c1 [PG, propyl gallate] = 8

P: CCCCCCCCCCCCOC(=O)c1cc(O)c(O)c(O)c1 [LG, lauryl gallate]
Q: CC(C)(c1ccc(O)cc1)c1ccc(O)cc1
R: O=C(c1ccc(O)cc1)c1ccc(O)c(O)c1O [Example 2344, 2,3,4,4′-tetrahydroxybenzophenone]
Query block: Kindly order the items shown according to Solubility, from the highest value down. Show the ranking through the labels, in the order asked for.
Result block: P, Q, R
